Data origin: the nanobody polyreactivity screen of Harvey et al. (2022)

method_summary: yeast display, Sf9 membrane polyspecificity reagent, FACS + sequencing; frameworks hold sequencing errors

| item_sequence | polyreactivity (PSR sort gate) |
| --- | --- |
| QVQLVESGGGLVQAGRSLRLSCAASGITFKLYAMGWYRQAPGKERELVARLSLRGGNTYYADSVKVRFTISRDNAKTTVYLQMNSQNPEDTAVYYCNADLYRQYASRYHYWGQGSQVTVSS | high polyreactivity |
| QVQLVESGGGLVQAGGSLRLSCAASGFTFYLYTMGWYRQAPGNESELVATITSDGGTNYADSVKGRFTISRDNAKNTVYLQMNSLKPEDTAVYYFNAASRRGSRKQAKYDYWGQGTQVTVSS | low polyreactivity |
| QVQLVESGGGLVQAGGSLRLSCAASGITFYKNAMGWYRPAPGKERELVAAISGRGGTTYYADSVKGRFTLSRDNAKNTVYVQMNSLKPEDTAVYYCNTVRWAWPYLKFDYWGQGTQVTVSS | high polyreactivity |
| QVQLVESGGGLVQAGGSLRLSCAASGSIFFSYAMGWYRQAPGKERELVAAISSGGSTYYADSVKGRFTISRDNAKNTVYLQMNSLKPEDTAVYYCAARGYRLVPVDFYYWGQGTQVTVSS | low polyreactivity |
| QVQLVESGGGLVQAGGSLRLSCAASGIIFPYSAMGWYRQAPGKERELVAAITSIDASTYYADSVKRRFTISRDNAKNTVYLHMNSLKPEDTAVYYCNATVFNLVLEYNYWGQGTQVTVSS | low polyreactivity |
| QVQLVESGGGLVHAGGSLRLSCAASGSIFGANVMGWYRQAPGKERELVAAITRSGTRTYYADSVKGRFTISRDNAKNTVYLQMNSLKPEDTAVYYCAAVLRLSTLTTDFGYWGQGTQVTVSS | high polyreactivity |
| QDQLVETGGGLVQAGGSLRLSCAASGIIFYPNAMGWYRQAPGKERELVAAISWRSGSTYYADSVKGRFTISRDNAKNTVYLQMNSLKPEDTAVYYCAADRRRSYIWRYDYWGQGTQVTVSS | low polyreactivity |
| QVQLVESGGGLVQAGGSLSLSFAASGRTFGYYDMGRYRQAPGKEREFVAAITWSGGNTYADSVKGRFTISRDNAKNTVYLQMNSLKPEDTAVYYCNAVVRAYYTSIWVPRYDYWGQATQVTVSS | high polyreactivity |
| QVQLVESGGGLVQAGGSLRLSCAAYGSTFDRNVMGWYRQAPGKERELVAAISRVSSTNYADSVKGRFTISRDNAKNTVYLQMNSLKPEDTAVYYCAADRPGSIMNYWGQGTQVTVSS | low polyreactivity |
